Could you please report measured log10 EC50 for the items listed next?
Target: human FPR1 (Homo sapiens (Human))
Sequence (P21462 whole entry): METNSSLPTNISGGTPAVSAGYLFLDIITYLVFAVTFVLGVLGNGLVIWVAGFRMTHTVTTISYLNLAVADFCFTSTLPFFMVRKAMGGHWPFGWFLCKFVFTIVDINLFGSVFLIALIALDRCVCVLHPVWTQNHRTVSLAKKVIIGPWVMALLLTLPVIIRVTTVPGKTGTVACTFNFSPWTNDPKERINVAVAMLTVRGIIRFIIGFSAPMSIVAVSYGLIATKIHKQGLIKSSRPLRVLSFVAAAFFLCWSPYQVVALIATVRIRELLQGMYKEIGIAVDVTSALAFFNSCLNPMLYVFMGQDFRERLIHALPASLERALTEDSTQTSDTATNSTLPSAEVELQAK
Assay: FPR1 cyclic adenosine monophosphate (cAMP) assay
Settings: CHO cells overexpressing human FPR1; forskolin 10 µM; inhibition of cAMP production; read-out: hFPR1 cAMP EC50
A value of 2 here means EC50 of 100 in nM, since values are log10.

(Q) State its log10 EC50 for this molecule: COc1cc(F)c([C@@H]2CN(c3c(C)c4c(n(CCO)c3=O)CCC4)C(=O)[C@H]2NC(=O)c2ccc(OC(F)(F)F)cc2)c(F)c1 [Example 592]
(A) 0.79

(Q) State its log10 EC50 for this molecule: COc1cc(F)c([C@@H]2CN(c3nccc(NCC4CCCO4)c3C(F)(F)F)C(=O)[C@H]2NC(=O)c2ccc(Cl)cc2)c(F)c1 (stereo partly drawn) [Example 447]
(A) 3.45

(Q) State its log10 EC50 for this molecule: COc1cc(F)c([C@@H]2CN(c3c(C)ccn(C(CO)C(F)(F)F)c3=O)C(=O)[C@H]2NC(=O)c2ccc(OC(F)F)cc2)c(F)c1 (stereo partly drawn) [Example 706]
(A) 1.28

(Q) State its log10 EC50 for this molecule: COc1ccc([C@@H]2CN(c3c(C)ccn(CCC(F)(F)F)c3=O)C(=O)[C@H]2NC(=O)c2ccc(Cl)cc2)cc1 [Example 386]
(A) 0.00

(Q) State its log10 EC50 for this molecule: COc1cc(F)c([C@@H]2CN(c3cccn(CCC(F)(F)F)c3=O)C(=O)[C@H]2NC(=O)c2ccc(OC(F)F)cc2)c(F)c1 [Example 241]
(A) 1.58

(Q) State its log10 EC50 for this molecule: COc1cc(F)c([C@@H]2CN(c3cccn(CC(O)CO)c3=O)C(=O)[C@H]2NC(=O)c2ccc(OC(F)(F)F)cc2)c(F)c1 (stereo partly drawn) [Example 669]
(A) 2.43

###

Could you please report measured EC50 for the items listed next?
Target: human FPR2 (Homo sapiens (Human))
Sequence (P25090 whole entry): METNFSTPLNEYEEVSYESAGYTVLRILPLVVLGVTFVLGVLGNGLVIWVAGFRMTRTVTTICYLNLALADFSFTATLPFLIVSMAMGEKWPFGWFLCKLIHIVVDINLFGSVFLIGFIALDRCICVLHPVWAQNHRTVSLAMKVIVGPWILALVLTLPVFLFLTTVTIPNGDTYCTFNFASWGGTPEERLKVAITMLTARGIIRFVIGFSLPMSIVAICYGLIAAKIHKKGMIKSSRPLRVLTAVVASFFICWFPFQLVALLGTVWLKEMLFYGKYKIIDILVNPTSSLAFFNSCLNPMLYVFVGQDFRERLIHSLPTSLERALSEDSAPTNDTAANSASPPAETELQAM
Assay: FPR2 cyclic adenosine monophosphate (cAMP) assay
Assay type: cell-based
Details: CHO cells overexpressing human FPR2; forskolin 5 µM; inhibition of cAMP production; read-out: hFPR2 cAMP2 EC50
Return type: number; implicit unit nM.

(Q) State its EC50 for this compound: `COc1cc(F)c([C@@H]2CN(c3cccn(CCF)c3=O)C(=O)[C@H]2NC(=O)c2ccc(OC(F)(F)F)cc2)c(F)c1`
(A) 6

(Q) State its EC50 for this compound: COc1cc(F)c([C@@H]2CN(c3c(C)ccn(CCS(C)(=O)=O)c3=O)C(=O)[C@H]2NC(=O)c2ccc(OC(F)(F)F)cc2)c(F)c1 [Example 469]
(A) 1.4

(Q) State its EC50 for this compound: `COc1cc(F)c([C@@H]2CN(c3cccc(P(C)(C)=O)n3)C(=O)[C@H]2NC(=O)c2ccc(Cl)cc2)c(F)c1`
(A) 66

(Q) State its EC50 for this compound: COc1cc(F)c([C@@H]2CN(c3c(C)ccn(CC(C)O)c3=O)C(=O)[C@H]2NC(=O)c2ccc(OC(F)(F)F)cc2)c(F)c1 (some centres unmarked) [Example 359]
(A) 4.5

(Q) State its EC50 for this compound: COCCNc1ccnc(N2C[C@@H](c3c(F)cc(OC)cc3F)[C@H](NC(=O)c3ccc(Cl)cc3)C2=O)c1C(F)(F)F [Example 423]
(A) 4.7

(Q) State its EC50 for this compound: `COc1cc(F)c([C@@H]2CN(c3cccnc3OCCO)C(=O)[C@H]2NC(=O)c2ccc(OC(F)(F)F)cc2)c(F)c1`
(A) 9.5

(Q) State its EC50 for this compound: `CCn1cncc(N2C[C@@H](c3c(F)cc(OC)cc3F)[C@H](NC(=O)c3ccc(Cl)cc3)C2=O)c1=O`
(A) 4.6

(Q) State its EC50 for this compound: COc1cc(F)c([C@@H]2CN(c3cccn(CC(C)O)c3=O)C(=O)[C@H]2NC(=O)c2ccc(OC(F)F)cc2)c(F)c1 (some centres unmarked) [Example 104]
(A) 2.9

(Q) State its EC50 for this compound: COCC(CO)n1cccc(N2C(=O)[C@@H](NC(=O)c3ccc(OC(F)(F)F)cc3)[C@H](c3c(F)cc(OC)cc3F)[C@@H]2C)c1=O (some centres unmarked) [Example 293]
(A) 8.7

(Q) State its EC50 for this compound: `COc1cc(F)c([C@@H]2CN(c3nccc(NC4CC4)c3C(F)(F)F)C(=O)[C@H]2NC(=O)c2ccc(Cl)cc2)c(F)c1`
(A) 4.2

(Q) State its EC50 for this compound: `COc1cc(F)c([C@@H]2CN(c3cccn(CC(F)F)c3=O)C(=O)[C@H]2NC(=O)c2ccc(C#N)cc2)c(F)c1`
(A) 10

(Q) State its EC50 for this compound: COc1cc(F)c([C@@H]2CN(c3c(C)ccn(CC4CCO4)c3=O)C(=O)[C@H]2NC(=O)c2ccc(OC(F)F)cc2)c(F)c1 (some centres unmarked) [Example 617]
(A) 9.1

(Q) State its EC50 for this compound: `COCCn1cccc(N2C(=O)[C@@H](NC(=O)c3ccc(OC(F)F)cc3)[C@H](c3c(F)cc(OC)cc3F)[C@H]2C)c1=O`
(A) 3.3
